B1: glmS ribozyme (parent)
chain: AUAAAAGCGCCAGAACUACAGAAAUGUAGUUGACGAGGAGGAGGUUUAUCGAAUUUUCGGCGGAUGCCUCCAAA

# Variants of: B1
# measurement_protocol: self-cleavage kobs at 640 uM GlcN6P; higher = faster cleavage; RNA array
# test_parameters: with glucosamine-6-phosphate
This sample holds only a part of the variants without activity.
observed_property: self-cleavage kobs at 640 uM GlcN6P (s⁻¹)
Answers are plain numbers, in s⁻¹.

1. U30C C70U ... 0.000125
2. C16G U54A ... 0.00144
3. A14U A64U U65A C67G C71G ... 7.6e-05

// for each variant in input: emit self-cleavage kobs at 640 uM GlcN6P
1. U47C U65G
2. A14U U31A

Solution:
[0.000565, 0.00488]

Lab note: each variant below needs its self-cleavage kobs at 640 uM GlcN6P filled in.
1. U31C G41U
2. A12U C16G G32A
3. C11U G40C C71U
4. G44A U46G
5. C11A G37A C50U G59A C67U U69G
6. A39U U55C U65G

Solution:
1. 5.36e-05
2. 9.86e-05
3. 4.4e-05
4. 0.000114
5. 6.37e-05
6. 0.000491

Respectfully, I request self-cleavage kobs at 640 uM GlcN6P for each entry included below.
1. U30C C67U
2. U46G C70A
3. U54G C70A

Solution:
1: 3.56e-05; 2: 0.000153; 3: 0.000198
